Experiment notes: plasma pharmacokinetics (HPLC-MS/MS, population PK model)
Details: human, intravenous, 70 mg/m^2
Measured quantity: concentration at 6 h (ng/mL)
A number alone suffices; assume ng/mL.

Q: Field request: concentration at 6 h | item: `CCc1cnn2c(NCc3ccc[n+]([O-])c3)cc(N3CCCC[C@H]3CCO)nc12`
Ans: 52.2

====

Experiment notes: plasma pharmacokinetics (HPLC-MS/MS, population PK model)
Details: human, intravenous, 50 mg/m^2
Measured quantity: concentration at 3 h (ng/mL)
Report the figure in ng/mL without appending any unit label.

Q: Form field: reported concentration at 3 h of CCc1cnn2c(NCc3ccc[n+]([O-])c3)cc(N3CCCC[C@H]3CCO)nc12 [Dinaciclib]
Ans: 195
